I'd be grateful if you could share measured GI50 for these entries.
Test system: HOP-62
Assay: NCI tumour cell line growth inhibition, 48 h
Active and inactive are the calls of the source. Rule as the data show it: active = GI50 up to about 1.1 µM and inactive = higher.

Solved entries:
compound: CCC1(c2ccccc2)C(=O)N=C(c2ccccc2)N1CCc1ccccc1 (stereo not drawn)
GI50: > 100 µM (inactive)
--
compound: COc1cc2c(cc1OCCCC(=O)Nc1cc(C(=O)Nc3cc(C(=O)Nc4cc(C(=O)NCCCN(C)C)n(C)c4)n(C)c3)n(C)c1)N=C[C@@H]1CCCN1C2=O
GI50: 3.56 µM (inactive)
--
compound: O=C(/C=C\Nc1ccccc1O)C(F)(F)F
GI50: 30.6 µM (inactive)
--
compound: Nc1nc(-c2ccccc2)c(-c2ccccc2)c(-c2nc(N)nc(-c3ccccc3)c2-c2ccccc2)n1
GI50: > 100 µM (inactive)
--
compound: Cc1cc(C)nc(NS(=O)(=O)c2ccc(NNc3c4ccccc4nc4c(C(=O)Nc5ccc(S(=O)(=O)N=C(N)N)cc5)cccc34)cc2)n1
GI50: > 100 µM (inactive)
--
compound: CC(=O)OCC1OC(n2c(C)c(C(C)=O)c(-c3ccc(Cl)cc3)c(C#N)c2=S)C(OC(C)=O)C(OC(C)=O)C1OC(C)=O (stereo not drawn)
GI50: > 100 µM (inactive)

Hi! Can you tell me GI50 for each of these compounds?
1. NC(=S)N/N=C(\C(=O)Nc1cccc([N+](=O)[O-])c1)c1nc2ccc([N+](=O)[O-])cc2nc1O
2. CC(C)(C)OC(=O)NNC(=O)C1Cc2ccccc2OC1=O (stereo not drawn)

1. 56.8 µM (inactive)
2. > 100 µM (inactive)

====

Tested on: MDA-N
Experiment: NCI tumour cell line growth inhibition, 48 h
Calls of active or inactive are those of the source. No stated cut-off is given here; in the data, active = GI50 up to about 1.1 µM and inactive = higher.
Pick from 1 = active, -1 = inactive when you respond.

molecule: NNc1nncc2[nH]nnc12
assayed_target: MDA-N
category_label: -1
//
molecule: CC(C)c1ccccc1SCc1cc(=O)cc(CSc2ccccc2C(C)C)o1
assayed_target: MDA-N
category_label: -1

Outcome logged for CCC1(c2ccccc2)C(=O)N=C(c2ccccc2)N1CCc1ccccc1 (stereo not drawn) in this assay:
-1

Outcome logged for Cc1ccc(S(=O)(=O)Nc2ccccc2C=O)cc1 in this assay:
-1

====

Test system: NCI-H23
Experiment: NCI tumour cell line growth inhibition, 48 h
Active and inactive are the calls of the source. Rule as the data show it: active = GI50 up to about 1.1 µM and inactive = higher.
I'd be grateful if you could share measured GI50 for these entries.

compound: Cc1cc(NCCCCCCCNc2cc(C)nc3cc(N)ccc23)c2ccc(N)cc2n1
assayed_target: NCI-H23
GI50: 30.8 µM (inactive)

Hi! Can you tell me GI50 for each of these compounds?
1. COc1ccc(C(=O)/C(Br)=C/C(=O)O)cc1
2. N#CCCNCCN(CCN(C(=O)Nc1ccccc1)c1ccccc1)C(=O)Nc1ccccc1
3. O=C(NC/C=C/Br)NC1CCNc2ccccc21 (stereo not drawn)
4. CCOC(=O)C1=C(C(=O)OCC)C2c3ccccc3C=CN2C(C(=O)OCC)=C(SC)S1 (stereo not drawn)
5. Nc1c(C(=O)c2ccc(Cl)cc2)[nH]c(NCc2ccccc2)c1C(=S)Nc1ccccc1
6. OCC1OC(NC(=S)NCCC(F)(F)C(F)(F)C(F)(F)C(F)(F)C(F)(F)C(F)(F)F)C(O)C(O)C1O (stereo not drawn)
7. CC(=O)OC1COC(N2CCc3cc([N+](=O)[O-])ccc32)C(OC(C)=O)C1OC(C)=O (stereo not drawn)

1: 26.8 µM (inactive); 2: 33.2 µM (inactive); 3: 16.8 µM (inactive); 4: 87.1 µM (inactive); 5: 2.39 µM (inactive); 6: > 100 µM (inactive); 7: > 100 µM (inactive)
